# experimental target: Sodium-dependent dopamine transporter (Rattus norvegicus)
# Sequence (P23977 whole entry): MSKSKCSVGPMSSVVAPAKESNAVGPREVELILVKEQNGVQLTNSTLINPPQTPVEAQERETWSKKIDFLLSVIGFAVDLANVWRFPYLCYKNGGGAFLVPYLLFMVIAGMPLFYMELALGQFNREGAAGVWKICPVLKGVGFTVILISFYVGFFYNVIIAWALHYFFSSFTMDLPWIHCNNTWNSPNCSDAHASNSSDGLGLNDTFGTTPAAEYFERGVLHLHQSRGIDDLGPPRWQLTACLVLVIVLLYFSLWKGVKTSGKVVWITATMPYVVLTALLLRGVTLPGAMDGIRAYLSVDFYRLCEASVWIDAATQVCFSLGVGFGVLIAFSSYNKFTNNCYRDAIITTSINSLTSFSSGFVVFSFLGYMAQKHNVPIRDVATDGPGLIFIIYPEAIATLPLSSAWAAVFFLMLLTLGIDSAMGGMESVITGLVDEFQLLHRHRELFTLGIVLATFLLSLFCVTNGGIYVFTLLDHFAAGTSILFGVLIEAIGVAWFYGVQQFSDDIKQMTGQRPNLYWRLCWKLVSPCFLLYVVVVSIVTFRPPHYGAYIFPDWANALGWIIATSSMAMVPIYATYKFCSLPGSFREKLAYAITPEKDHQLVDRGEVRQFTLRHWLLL
# protocol notes: Binding affinity was determined against cocaine binding site by measuring the ability of compound to displace bound [3H]dopamine from rat caudate-putamen tissue
# Format: tissue-based
experimental endpoint: Ki

Recorded result, COC(=O)/C=C/C1C2CC[C@H](C[C@@H]1c1ccccc1)N2C (stereo partly specified) , Ki: 22 nM

Recorded result, CN1C2CC[C@@H]1C[C@H](c1ccccc1)C2CCCO (stereo partly specified) , Ki: 11 nM

Recorded result, COC(=O)CCC1C2CC[C@H](C[C@@H]1c1ccccc1)N2C (stereo partly specified) , Ki: 23 nM

Recorded result, CN1C2CC[C@@H]1C[C@H](c1ccccc1)C2CC/C=C/C(=O)O (stereo partly specified) , Ki: 20 nM

Recorded result, COC(=O)[C@@H]1C2CC[C@H](C[C@@H]1c1ccccc1)N2C , Ki: 33 nM

Recorded result, CN1C2CC[C@@H]1C[C@H](c1ccccc1)C2/C=C/CO (stereo partly specified) , Ki: 26 nM
